So I've got a bunch of compounds here, and I need their Max. Response values.
- Assayed target: mu opioid receptor (MOR) (Homo sapiens, UniProt P35372)
- Sequence (P35372 whole entry): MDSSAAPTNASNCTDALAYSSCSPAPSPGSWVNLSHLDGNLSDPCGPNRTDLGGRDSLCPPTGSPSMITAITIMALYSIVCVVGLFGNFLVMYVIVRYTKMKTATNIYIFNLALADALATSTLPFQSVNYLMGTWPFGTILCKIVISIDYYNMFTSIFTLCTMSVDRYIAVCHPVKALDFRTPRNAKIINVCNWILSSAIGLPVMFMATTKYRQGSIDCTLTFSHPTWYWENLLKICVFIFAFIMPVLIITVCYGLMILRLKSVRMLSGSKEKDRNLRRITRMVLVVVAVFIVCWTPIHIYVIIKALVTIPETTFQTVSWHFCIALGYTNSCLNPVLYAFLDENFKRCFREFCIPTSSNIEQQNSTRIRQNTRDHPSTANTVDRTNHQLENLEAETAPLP
- Method description: Hit Hunter cAMP signaling assay (adenylyl cyclase inhibition), PAM mode with EC20 endomorphin-1
- Assay type: cell-based
- Assay setup: cAMP; EC20 EM-1 agonism of MOR
Please reply with the number alone, leaving off any unit.

[ask] Note down Max. Response recorded for Fc1cnc(Cl)nc1N1CCCCC1c1cccc(C(F)(F)F)c1 (single isomer, unassigned) [compound 8]
[reply] 76

[ask] Dear colleague, please send me the reported Max. Response for COc1ccc(C2CCCCN2S(=O)(=O)c2ccc(Cl)cc2)cc1Br (single isomer, unassigned) when you can.
[reply] 93

[ask] Give the reported Max. Response for this compound. Fc1cnc(Cl)nc1N1CCCCC1c1cccc(C(F)(F)F)n1 (stereo not shown)
[reply] 43

[ask] Item Fc1ccc(Cl)cc1CN1CCCCC1c1cccc(C(F)(F)F)n1 (stereo not shown) : provide Max. Response
[reply] 81
